molecular target: Yes/yes1 (Homo sapiens, UniProt P07947); construct: T7 phage fusion (most assays) or DNA tag for qPCR (HEK-293-made kinases); assay: kinase competition binding assay; conditions: Table 1
Sequence (P07947 whole entry, the tested form may be a part): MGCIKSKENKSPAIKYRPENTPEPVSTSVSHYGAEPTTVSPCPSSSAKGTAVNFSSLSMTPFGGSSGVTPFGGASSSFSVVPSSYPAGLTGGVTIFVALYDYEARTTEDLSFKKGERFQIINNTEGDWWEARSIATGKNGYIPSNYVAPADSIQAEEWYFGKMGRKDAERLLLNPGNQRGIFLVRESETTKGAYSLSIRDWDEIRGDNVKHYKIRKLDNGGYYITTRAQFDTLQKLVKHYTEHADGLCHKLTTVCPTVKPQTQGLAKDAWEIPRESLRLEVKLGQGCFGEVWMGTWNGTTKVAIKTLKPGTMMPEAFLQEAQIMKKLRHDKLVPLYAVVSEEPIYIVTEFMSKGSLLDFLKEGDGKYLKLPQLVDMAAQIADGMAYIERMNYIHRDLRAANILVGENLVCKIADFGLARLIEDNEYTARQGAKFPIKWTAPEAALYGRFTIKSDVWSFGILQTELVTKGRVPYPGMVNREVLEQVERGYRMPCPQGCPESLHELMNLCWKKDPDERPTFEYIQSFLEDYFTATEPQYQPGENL
experimental readout: IC50 (nM)
Give just the numeric value; nM need not be written.

// COc1cc(-c2cc(=O)c3c(O)cc(O)c(CC=C(C)C)c3o2)ccc1O [FBL-03G, Caflanone] : IC50 value = 294

====

Biological target: JAK1 (Homo sapiens)
Construct: full-length constructs were used for small, single domain kinases, and catalytic domain constructs for large multi-domain kinases; T7 phage fusion (most assays) or DNA tag for qPCR (HEK-293-made kinases)
Sequence (P23458 whole entry, the tested form may be a part): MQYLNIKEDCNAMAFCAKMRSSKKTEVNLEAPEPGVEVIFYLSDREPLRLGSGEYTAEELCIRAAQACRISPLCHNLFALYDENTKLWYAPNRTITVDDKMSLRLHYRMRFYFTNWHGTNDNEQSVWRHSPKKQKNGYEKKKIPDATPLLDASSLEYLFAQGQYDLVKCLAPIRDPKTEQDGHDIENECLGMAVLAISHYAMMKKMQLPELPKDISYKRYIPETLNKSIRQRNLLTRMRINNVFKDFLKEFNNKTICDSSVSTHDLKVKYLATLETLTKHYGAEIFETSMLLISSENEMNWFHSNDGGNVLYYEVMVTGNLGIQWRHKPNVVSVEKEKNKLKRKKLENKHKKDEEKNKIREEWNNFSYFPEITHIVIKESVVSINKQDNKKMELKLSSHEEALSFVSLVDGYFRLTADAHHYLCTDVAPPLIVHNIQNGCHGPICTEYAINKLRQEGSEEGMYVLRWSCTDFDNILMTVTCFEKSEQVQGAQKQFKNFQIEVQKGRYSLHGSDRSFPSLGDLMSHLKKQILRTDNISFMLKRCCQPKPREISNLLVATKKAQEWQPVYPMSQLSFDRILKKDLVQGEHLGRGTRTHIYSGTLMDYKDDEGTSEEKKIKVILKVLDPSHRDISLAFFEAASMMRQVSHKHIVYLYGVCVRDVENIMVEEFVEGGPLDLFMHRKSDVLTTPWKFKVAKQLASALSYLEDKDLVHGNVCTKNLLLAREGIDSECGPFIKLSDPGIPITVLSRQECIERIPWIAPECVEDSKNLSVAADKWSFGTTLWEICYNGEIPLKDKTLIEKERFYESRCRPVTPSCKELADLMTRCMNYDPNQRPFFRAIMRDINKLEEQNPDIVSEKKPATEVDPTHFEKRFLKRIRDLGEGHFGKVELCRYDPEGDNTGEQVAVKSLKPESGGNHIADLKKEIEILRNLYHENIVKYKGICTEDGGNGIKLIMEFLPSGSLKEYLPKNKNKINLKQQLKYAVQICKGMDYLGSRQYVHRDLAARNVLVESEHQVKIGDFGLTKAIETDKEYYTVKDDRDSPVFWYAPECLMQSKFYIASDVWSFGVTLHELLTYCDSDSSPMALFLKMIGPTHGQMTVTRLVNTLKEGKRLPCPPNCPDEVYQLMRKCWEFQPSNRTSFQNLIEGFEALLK
Assay: kinase competition binding assay
Conditions: Table 1
Method: Cannabis flavonoids and their analogs were subjected to kinase inhibition assay. The compounds were first screened at a single concentration of 10 μM in the primary assay. […]. […] See also, Karaman et al., “A Quantitative Analysis Of Kinase Inhibitor Selectivity”, Nat. […] For most assays, kinases were fused to T7 phage strains (Fabian, supra) and for the other assays, kinases were produced in HEK-293 cells after which they were tagged with DNA for quantitative PCR detection. […]
experimental readout: IC50
Please answer using a numeric value trailed by its unit.

Recorded result, COc1cc(-c2cc(=O)c3c(O)cc(O)c(CC=C(C)C)c3o2)ccc1O [FBL-03G, Caflanone] , IC50: 644 nM

====

target: SRC (Homo sapiens, UniProt P12931); construct: T7 phage fusion (most assays) or DNA tag for qPCR (HEK-293-made kinases); assay: kinase competition binding assay; settings: Table 1
Sequence (P12931 whole entry, the tested form may be a part): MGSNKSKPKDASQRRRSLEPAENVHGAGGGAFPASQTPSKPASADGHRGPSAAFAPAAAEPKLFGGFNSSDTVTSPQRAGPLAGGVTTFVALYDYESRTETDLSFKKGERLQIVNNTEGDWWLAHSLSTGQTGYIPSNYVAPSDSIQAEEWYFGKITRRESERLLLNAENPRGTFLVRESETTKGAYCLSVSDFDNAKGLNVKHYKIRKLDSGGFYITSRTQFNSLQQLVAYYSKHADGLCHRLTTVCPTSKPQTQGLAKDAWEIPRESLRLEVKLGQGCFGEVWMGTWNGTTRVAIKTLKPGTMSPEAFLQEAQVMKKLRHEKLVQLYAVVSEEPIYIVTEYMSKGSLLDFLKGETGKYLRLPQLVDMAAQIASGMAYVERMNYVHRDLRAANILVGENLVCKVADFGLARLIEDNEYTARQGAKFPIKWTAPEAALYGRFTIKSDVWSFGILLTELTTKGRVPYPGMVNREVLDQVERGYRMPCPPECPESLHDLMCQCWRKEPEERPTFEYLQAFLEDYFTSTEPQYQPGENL
experimental readout: pIC50
pIC50 field: float, defined as -log10 of concentration (mol/L).

Value of pIC50 reported for the compound COc1cc(-c2cc(=O)c3c(O)cc(O)c(CC=C(C)C)c3o2)ccc1O [FBL-03G, Caflanone] is 5.77

====

biological target: FLT3(D835Y) (Homo sapiens, UniProt P36888, D835Y); construct: full-length constructs were used for small, single domain kinases, and catalytic domain constructs for large multi-domain kinases; T7 phage fusion (most assays) or DNA tag for qPCR (HEK-293-made kinases); details: Table 4; read-out: IC50 Kinases FLT3-D835Y
experimental readout: pIC50
Reminder that pIC50 means the negative base-10 logarithm of the concentration expressed in mol/L.

compound COc1ccc(-c2cc(=O)c3c(O)cc(O)cc3o2)cc1 , pIC50 observed: 7.31

====

test system: KMS-11 (Multiple myeloma); test: anticancer cell proliferation assay (WST-1); type: cell-based; settings: 72 hours
experimental readout: pIC50
Units for pIC50: none; it is -log10 of a concentration expressed in mol/L.

The measured pIC50 that COc1cc(-c2cc(=O)c3c(O)cc(O)c(CC=C(C)C)c3o2)ccc1O [FBL-03G, Caflanone] showed for KMS-11 (Multiple myeloma) is 7.19

====

test system: MV4-11 (Leukemia); experiment: anticancer cell proliferation assay (WST-1); type: cell-based; details: Table 4; read-out: IC50 Acute Myeloid Leukemia cell lines MV4-11
experimental readout: pIC50
Please keep in mind that pIC50 is minus log10 of the molar concentration; only the number is needed.

Short answer for COc1ccc(-c2cc(=O)c3c(O)cc(O)cc3o2)cc1O : pIC50 was 5.49

====

molecular target: PIK4CB (Homo sapiens); construct: T7 phage fusion (most assays) or DNA tag for qPCR (HEK-293-made kinases); experiment: kinase competition binding assay; conditions: Table 1
Sequence (Q9UBF8 whole entry, the tested form may be a part): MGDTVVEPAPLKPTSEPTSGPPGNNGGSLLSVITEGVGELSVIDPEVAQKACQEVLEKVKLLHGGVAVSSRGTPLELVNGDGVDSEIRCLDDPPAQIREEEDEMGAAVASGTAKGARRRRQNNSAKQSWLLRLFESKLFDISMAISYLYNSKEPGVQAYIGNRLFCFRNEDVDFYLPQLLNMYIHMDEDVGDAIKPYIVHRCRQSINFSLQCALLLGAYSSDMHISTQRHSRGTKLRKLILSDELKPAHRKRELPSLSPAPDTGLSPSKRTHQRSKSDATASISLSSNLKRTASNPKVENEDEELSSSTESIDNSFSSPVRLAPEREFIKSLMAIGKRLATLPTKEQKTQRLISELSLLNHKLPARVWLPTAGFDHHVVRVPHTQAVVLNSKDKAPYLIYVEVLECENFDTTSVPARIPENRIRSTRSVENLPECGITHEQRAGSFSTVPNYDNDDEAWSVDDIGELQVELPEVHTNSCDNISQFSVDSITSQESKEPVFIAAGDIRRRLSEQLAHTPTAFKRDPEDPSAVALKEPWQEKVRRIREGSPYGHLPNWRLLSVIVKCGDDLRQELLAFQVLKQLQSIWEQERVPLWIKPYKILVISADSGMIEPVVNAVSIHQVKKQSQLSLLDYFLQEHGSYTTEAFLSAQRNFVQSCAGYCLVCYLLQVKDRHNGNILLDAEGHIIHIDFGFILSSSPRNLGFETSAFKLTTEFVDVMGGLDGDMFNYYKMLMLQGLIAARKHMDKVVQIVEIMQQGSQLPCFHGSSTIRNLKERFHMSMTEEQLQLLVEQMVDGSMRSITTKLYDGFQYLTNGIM
experimental readout: pIC50
Entry type: numeric. Quantity: pIC50, the -log10 of concentration in molar units.

For COc1cc(-c2cc(=O)c3c(O)cc(O)c(CC=C(C)C)c3o2)ccc1O [FBL-03G, Caflanone] the compound record lists pIC50 as 6.87
